FYI, the data here is from patent US20230250088A1.

# target.system: hSTING (Homo sapiens, UniProt Q86WV6, G230A/H232R/R293Q/R71H)
# Construct: host or cells: THP1-Dual KO-IFNAR2 cells
# Sequence (Q86WV6 whole entry R71H/G230A/H232R/R293Q): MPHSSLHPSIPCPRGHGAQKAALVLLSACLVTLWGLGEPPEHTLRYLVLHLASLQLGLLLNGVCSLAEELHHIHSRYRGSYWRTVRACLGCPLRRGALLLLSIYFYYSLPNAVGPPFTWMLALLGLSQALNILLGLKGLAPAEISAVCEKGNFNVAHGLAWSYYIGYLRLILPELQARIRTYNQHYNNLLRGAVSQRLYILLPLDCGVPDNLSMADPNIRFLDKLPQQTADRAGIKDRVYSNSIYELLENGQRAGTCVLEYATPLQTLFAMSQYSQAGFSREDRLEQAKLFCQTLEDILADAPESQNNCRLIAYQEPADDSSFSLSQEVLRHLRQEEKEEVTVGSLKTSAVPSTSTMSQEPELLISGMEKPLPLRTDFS
# measurement.description: STING reporter assay (luciferase) in THP1-Dual KO-IFNAR2 cells activated with 2′3′cGAMP
# Assay type: cell-based
# measurement.conditions: THP1-Dual KO-IFNAR2 cells; 2′3′cGAMP 15 μM final, Lipofectamine 2000; 24 h; luciferase reporter activity; read-out: hSTING EC50
Provide the reported EC50 of each item.

For every item in the list below, what is its measured EC50?
1. O=C(Nc1c[nH]c2cc(F)c(F)cc12)c1n[nH]c2cc(OC(F)(F)F)ccc12 [Compound 118]
2. O=C(Nc1c[nH]c2cc(F)c(F)cc12)c1c2ccccc2nn1CCC(F)(F)F [Compound 102]
3. O=C(Nc1c[nH]c2cc(F)c(F)cc12)c1n[nH]c2nc(N3CCC(F)(F)CC3)ccc12 [Compound 154]
4. O=C(Nc1c[nH]c2cc(F)c(F)cc12)c1n[nH]c2nc(OCC(F)(F)F)ccc12 [Compound 129]

1. 200 to 1000 nM
2. 5000 to 100000 nM
3. 200 to 1000 nM
4. 200 to 1000 nM
